Tested on: OVCAR-8 ovarian
test name: NCI-60 one-dose screen, 48 h (100 = growth as untreated, 0 = no growth, -100 = all killed)
experimental context: 10 µM unless noted
The panel holds about 83,000 compounds, 20% with a hit somewhere; the sample as a whole holds those more often.
recorded endpoint: growth (%)
One number for each entry, in %.

Consider the reported growth for these molecules:
molecule	target system	scale unit	growth
Cc1ccc(C(=O)NCCCOc2ccc(N3C(N)=NC(N)=NC3(C)C)cc2Cl)cc1S(=O)(=O)F	OVCAR-8 ovarian	%	77.2
CC(C)[C@@H]1NC(=O)[C@]2(C)CSC(=N2)c2csc(n2)CNC(=O)C[C@@H](/C=C/CCS)OC1=O	OVCAR-8 ovarian	%	-11.9
CC1(C)N=C(N)N=C(N)N1c1ccc(CCCCc2ccc(Cl)c(S(=O)(=O)F)c2)c(Cl)c1	OVCAR-8 ovarian	%	5.53
C[C@@]1(CCCCCCCCCc2ccc(O)cc2)C[C@]2(C)OC(=O)C[C@@H]2OO1	OVCAR-8 ovarian	%	94.5
N/C(=N/N=C/c1ccncc1)N[N+](=O)[O-]	OVCAR-8 ovarian	%	103
COc1ccc(C/C(C)=C(\c2ccc(OCCN3CCOCC3)cc2)c2ccc(OC(=O)Cc3ccccc3)cc2)cc1	OVCAR-8 ovarian	%	-1.48
CC(=O)ONc1ccc([N+](=O)[O-])c(C(F)(F)F)c1	OVCAR-8 ovarian	%	109
Nc1ccc(-c2nc3cc(F)ccc3[se]2)cc1F	OVCAR-8 ovarian	%	92.3
Clc1cccc(N2COOC3(OOC2)C2CC4CC(C2)CC3C4)c1	OVCAR-8 ovarian	%	58.1
Oc1c(O)c(Cl)c(Cl)c(Cl)c1Cl	OVCAR-8 ovarian	%	-4.12

Please state, for each entry, its recorded growth.
1. c1cnc2[nH]cc(-c3csc(-c4cn(CCCCN5CCCCC5)c5ccccc45)n3)c2c1
2. CCOP(=O)(Nc1ccc2c(c1)/C(=N/NC(N)=S)c1ccccc1-2)OCC
3. C[C@]12CC[C@H]3[C@@H](C[C@@H]4SC(Nc5ccccc5)=N[C@@]45CC(O)CC[C@]35C)[C@@H]1CCC2O (some centres undefined)
4. CN1C(=O)C(=Cc2cn(Cc3ccccc3)c3ccccc23)C(=O)N(C)C1=O
5. N/C(=N\N=C\c1ccc(-c2ccccc2)cc1)N[N+](=O)[O-]

Response line:
87.3
94.7
-8.95
90.5
42.6

Please state, for each entry, its recorded growth.
1. ClCCN(CCCl)c1nc(Cl)c(C2CC(c3ccccc3)=NN2c2cc(Cl)cc(Cl)c2)s1 (centres undefined)
2. ClCCN(CCCl)Cc1ccc(Nc2ccnc3cc(Cl)ccc23)cc1
3. O=[N+]([O-])c1ccc(OP(=O)(CCl)N(CCCl)CCCl)cc1 (centres undefined)
4. CC1=C(O)[C@@](C)(CCCCC[C@H](C)CCCCc2ccc(O)cc2)OOC1=O

Response line:
100
37.9
100
93.4

* * *

Test system: RXF 393 renal
test name: NCI-60 one-dose screen, 48 h
experimental context: 10 µM unless noted
The panel holds about 83,000 compounds, 20% with a hit somewhere; the sample as a whole holds those more often. The source made the active and inactive calls. The calls were made as follows: active = growth percent below 10; inactive = the rest.
Valid outcomes are listed here; reply with one: T = active, F = inactive

As a guide, the following entries are already answered.
molecule	class name
C#Cc1ccc2c(c1)C(c1ccccc1)=NCC(=O)N2C	F
O=C(Nc1ccc(Cl)cc1)Nc1nccs1	T
C/C(=C\c1cc(C(F)(F)F)nn1CCNC(=O)OC(C)(C)C)[C@@H]1C[C@@H]2O[C@]2(C)CCC[C@H](C)[C@H](O)[C@@H](C)C(=O)C(C)(C)[C@@H](O)CC(=O)O1	F
C[C@@H]1O[C@@H](O[C@H]2C[C@@H](O)[C@]3(CO)C4C(CC[C@]3(O)C2)[C@@]2(O)CC[C@H](C3=CC(=O)OC3)[C@@]2(C)C[C@H]4O)[C@H](O)[C@H](O)[C@H]1O (stereo partly specified)	T
COC(=O)[C@@H](C)C[C@H](Cc1ccccc1)NC(=O)c1nc([C@@H](C[C@H](C(C)C)N(C)C(=O)[C@@H](NC(=O)[C@H]2CCCN2C)C(C)C)OC(C)=O)sc1C	F
COc1cccc2c1c(C(=O)C(=O)Nc1ccn[nH]1)cn2Cc1ccc(F)cc1	F

Prompt line: Name the outcome recorded for COc1ccc(Nc2ccc([N+](=O)[O-])cc2[N+](=O)[O-])cc1CN(CCCl)CCCl in the assay.
Response line: T

Prompt line: Name the outcome recorded for COC(=O)[C@@H](C)C[C@H](Cc1ccccc1)NC(=O)c1csc([C@@H](C[C@H](C(C)C)N(C)C(=O)[C@@H](NC(=O)[C@H]2CCCCN2C)C2CC2)OC(C)=O)n1 in the assay.
Response line: F

Prompt line: Name the outcome recorded for CCOC(=O)C(Cc1ccc(N(CCCl)CCCl)cc1)NC(=O)C(CC(C)C)NC(C)=O (stereo unspecified) in the assay.
Response line: T

Prompt line: Name the outcome recorded for COC(=O)[C@@H](C[C@H](Cc1ccccc1)NC(=O)c1csc([C@@H](C[C@H](C(C)C)N(C)C(=O)[C@@H](NC(=O)[C@H]2CCCCN2C)C(C)C)OC(C)=O)n1)NC(=O)OCc1ccccc1 in the assay.
Response line: F

Prompt line: Name the outcome recorded for COC(=O)[C@@H](C)C[C@H](Cc1ccccc1)NC(=O)c1csc([C@@H](C[C@H](C(C)C)N(C)C(=O)[C@@H](NC(=O)[C@H]2CCCCN2C)c2ccc(F)cc2)OC(C)=O)n1 in the assay.
Response line: F
